- Measured Target: furin, P09958;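 note: purified furin at 1:10 enzyme:substrate in 50 mM HEPES pH 7.5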
- Sequence (P09958 whole entry): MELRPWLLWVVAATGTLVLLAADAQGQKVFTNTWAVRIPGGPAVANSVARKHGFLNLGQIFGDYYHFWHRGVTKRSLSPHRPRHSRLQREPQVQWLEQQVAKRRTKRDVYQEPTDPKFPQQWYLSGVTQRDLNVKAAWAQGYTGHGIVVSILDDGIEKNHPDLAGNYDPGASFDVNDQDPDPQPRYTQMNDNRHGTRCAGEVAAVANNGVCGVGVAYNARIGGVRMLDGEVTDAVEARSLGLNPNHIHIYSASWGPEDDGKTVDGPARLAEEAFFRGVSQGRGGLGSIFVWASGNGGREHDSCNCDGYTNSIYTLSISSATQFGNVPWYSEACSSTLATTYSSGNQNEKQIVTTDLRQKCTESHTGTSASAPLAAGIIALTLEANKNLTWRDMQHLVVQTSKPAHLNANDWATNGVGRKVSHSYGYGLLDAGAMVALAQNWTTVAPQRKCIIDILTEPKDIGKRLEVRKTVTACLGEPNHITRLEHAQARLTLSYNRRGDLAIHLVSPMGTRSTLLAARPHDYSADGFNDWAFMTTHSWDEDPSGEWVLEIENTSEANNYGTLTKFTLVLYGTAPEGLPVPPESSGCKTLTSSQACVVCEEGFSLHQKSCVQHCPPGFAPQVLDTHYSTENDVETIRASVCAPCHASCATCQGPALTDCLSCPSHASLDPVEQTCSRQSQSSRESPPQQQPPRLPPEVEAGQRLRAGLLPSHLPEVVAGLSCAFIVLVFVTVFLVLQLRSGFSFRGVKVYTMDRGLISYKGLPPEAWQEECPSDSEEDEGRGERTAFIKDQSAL
- Protocol Details: furin cleavage Z-score vs untreated control; higher = more cleavage, active = 3.5 or more, inactive = 1 or less, 8 variable residues between constant flanks
- Experimental Setup: 7.5 min
The other results are listed elsewhere or left out. The hit rate among all sequences tested is not known here.
Reported furin cleavage Z-score is given for each of the following sequences.
A bare number is all that is needed in reply.

See these solved cases before continuing.
# furin cleavage Z-score of CAKKRTVVLTAGNASASA [HC1325] = -0.725

Short answer for CAEPDVAVLTAGNASASA [HC1243] : furin cleavage Z-score was 0.073

Reported furin cleavage Z-score of CAQALPVWARAGNASASA [HC1302] : -0.162

The reported furin cleavage Z-score of the sequence CAEGPCHRPSAGNASASA [HC2336] was 0.811

We now examine a further sequence.
Lab book: furin cleavage Z-score of CAVVCCFMSYAGNASASA [HC106] noted as 0.2
